# Tested on: RXF 393 renal
# ASSAY TEXT: NCI tumour cell line growth inhibition, 48 h
Item-by-item account of GI50
MEASUREMENT KIND: GI50

MOLECULE	TESTED ON	MEASUREMENT KIND	REPORTED
CCCCCC(=O)N1c2ccccc2NC2=C(C(=O)CC(c3ccc(OC)c(OC)c3)C2)C1c1ccc(C(F)(F)F)cc1 (configuration not stated)	RXF 393 renal	GI50	37.6 µM
CCOC(=O)c1sc(=S)c2c(C(=O)c3ccccc3)c(C(=O)c3ccccc3)sc2c1C(=O)OCC	RXF 393 renal	GI50	4.48 µM
COc1cc2c(cc1OCCCCCOc1cc(-c3ccc(F)cc3)nc(C)n1)N=C[C@@H]1CCCN1C2=O	RXF 393 renal	GI50	> 32.9 µM
CCN(CC)c1ccc(/C=N/NC(=O)c2ccc(Nc3ccnc(C(F)(F)F)c3)cc2)c(O)c1	RXF 393 renal	GI50	0.156 µM
c1ccc(-c2nc(Nc3ccc(-c4nc5ccccc5[nH]4)cc3)nc(N3CCOCC3)n2)cc1	RXF 393 renal	GI50	0.501 µM
C=C1C(=O)O[C@H]2[C@H]1CC/C(COC(=O)NCCc1ccc(OC)cc1)=C\CC[C@@]1(C)O[C@@H]21	RXF 393 renal	GI50	1.55 µM
CC[C@@]1(O)C(=O)NCc2c1cc1n(c2=O)Cc2cc3cc4c(cc3nc2-1)OCO4	RXF 393 renal	GI50	0.803 µM
Nc1nc(-n2cccn2)nc(-n2cccn2)c1Br	RXF 393 renal	GI50	> 100 µM
Nc1cc(N)c2nc(-c3ccccc3)c(Nc3ccc(F)cc3)nc2c1	RXF 393 renal	GI50	8.71 µM
[N-]=[N+]=Nc1ncc(-c2ccc(C(F)(F)F)cc2)c(NC2CCCCCC2)n1	RXF 393 renal	GI50	> 10 µM
COc1ccc2c(c1)[nH]c(=O)c1c3cccnc3cn21	RXF 393 renal	GI50	0.0195 µM
COc1ccc(C2=NNC(c3ccc(-c4ccc(OC)cc4[N+](=O)[O-])o3)C2)cc1 (configuration not stated)	RXF 393 renal	GI50	20.3 µM
